Molecular target: T1, cynomolgus monkey CD73 (on transfected CHOK1 cells) (cynomolgus monkey, UniProt A0A2K5V5U7 27-549)
T1 construct: whole, on cells; also called CHOK1-cCD73; CHOK1-CCD73
T1 sequence: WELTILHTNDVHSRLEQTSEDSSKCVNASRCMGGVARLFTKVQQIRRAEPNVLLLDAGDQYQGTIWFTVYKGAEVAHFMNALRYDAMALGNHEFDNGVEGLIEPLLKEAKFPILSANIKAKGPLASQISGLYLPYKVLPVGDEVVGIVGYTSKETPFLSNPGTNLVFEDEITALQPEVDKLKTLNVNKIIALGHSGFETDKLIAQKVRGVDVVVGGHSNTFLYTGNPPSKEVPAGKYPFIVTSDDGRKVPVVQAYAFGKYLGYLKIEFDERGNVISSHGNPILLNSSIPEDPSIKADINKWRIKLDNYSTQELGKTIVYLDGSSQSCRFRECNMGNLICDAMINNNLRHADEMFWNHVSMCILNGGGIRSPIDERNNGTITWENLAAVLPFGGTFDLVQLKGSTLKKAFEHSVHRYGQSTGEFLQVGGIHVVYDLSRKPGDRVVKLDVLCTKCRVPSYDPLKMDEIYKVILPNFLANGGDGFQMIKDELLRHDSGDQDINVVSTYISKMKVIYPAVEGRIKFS
Experiment: FACS on CHOK1-cCD73 cells
Listed next: entries and their corresponding MAX MFI.
reported.property: MAX MFI (MFI)

binder | readout.value
mAb034 (clone 60G1C8), murine anti-CD73 antibody (antibody, V domains shown, Purified from hybridoma supernatant) VH: DVQLQESGPGLVKPSQSLSLTCSVTGYSITSRYYWNWIRQFPGNKLEWMGYMTYDGTNNYNPSLTNRISITRDTSKNQFFLKLNSVTAEDTATYFCARGGWDPFDYWGQGTTLTVSS VL: DIQMTQSPAALSASVGETVTITCRASDNIYSYLAWYQQKQGKCPQLLVKNAKTLAEGVPSRFSGSGSGTQFSLRINSLQPDDFGTYYCQHYYGTPLTFGAGTKLELK | 3210
mAb042 (clone 77B9A3), murine anti-CD73 antibody (antibody, V domains shown, Purified from hybridoma supernatant) VH: QVQLQQSGAGLVKPGASVKLSCKASGYTFTNYWMHWVKQRPGQGLEWIGMIHPNSGSTNNNEKFKNKATLTVDKSSNTAYMQLSSLTSEDSAVYYCARFFFGGYPHYYALDYWGQGTSVTVSS VL: DIVMTQSQKFMSTTVGDRVSITCKASQNVGTAVAWYQQKPGQSPKLLIYSASDRYTGVPDRLTGSGSGTDFTLTISNVQSEDLADYFCQQYSSFPLFTFGSGTKLVIQ | 8770
